Attribution: patent US9744164B2

- Test system: HT22 cells
- protocol: in vitro ischemia assay (HT22 cell IAA assay)
- Format: cell-based, mouse
- condition.context: HT22 cells, 20 μM IAA 2 hr, viability by MTT after 24 hr; 'no' = no protection
- Experimental: For these studies, cultured HT22 mouse hippocampal cells were used as an in vitro stroke assay. […] Cell survival was measured using a standard colorimetric MTT (3-(4,5-dimethylthiazol-2-yl)-2,5-diphenyltetrazolium bromide) assay for cell survival MTT is a pale yellow substrate that is cleaved by living cells to yield a dark blue formazan product. Cytotoxicity assay. […] The absorbance at 570 nm was measured on the following day with a microplate reader (Molecular Devices). […]
measured.attribute: EC50 in vitro ischemia

Use these answered entries as a reference point.
compound	EC50 in vitro ischemia
COc1cc(-c2ccc(N3CCCC3)cc2)nc2ccccc12	no
COc1cc(-c2ccc([N+](=O)[O-])c(O)c2)nc2ccccc12	no
CCOc1ccc(/C=C/C(=O)c2ccc3ccccc3c2O)cc1OCC	no
CCOc1ccc(-c2cc(=O)c3cc(C)c(C)cc3o2)cc1OCC	no
CCOc1ccc(-c2cc(=O)c3ccc4ccccc4c3o2)cc1OCC	no
CCOc1ccc(/C=C/C(=O)c2cc(C)c(C)cc2O)cc1OCC	no
CCOc1ccc(-c2cc(OC)c3ccccc3n2)cc1OCC	no
COc1cc(-c2ccc(O)cc2)nc2ccccc12 [CMS-022, 4-methoxy-2-(4-hydroxyphenyl)quinoline]	no

// input: 2 compounds below; output: EC50 in vitro ischemia for each
1. COc1ccc(-c2cc(OC)c3ccccc3n2)cc1O
2. COc1ccc(/C=C/C(=O)c2cc(C)c(C)cc2O)cc1OCc1ccccc1

result:
["no", "no"]
